- System: UO-31 renal
- experimental protocol: NCI-60 one-dose screen, 48 h
- experimental parameters: 10 µM unless noted
This is part of a sample that, as a whole, favours compounds with a hit. Of some 83,000 tested, about 20% had one in any assay. The source made the active and inactive calls. The calls were made as follows: active = growth percent below 10; inactive = the rest.
API: response.call in class 1 (active), class 0 (inactive)

Examples with answers:
line notation | class name
CCN(C(=O)CN1CCN(c2cc3c(cc2F)c(=O)c(C(=O)O)cn3CC)CC1)c1nc(-c2ccccc2)cs1 | class 0
C/C(=C(/c1ccc(O)cc1)c1ccc(Cl)cc1)c1ccccc1 | class 1
CN(C)CCCC(=O)Nc1ccc(Cn2nnc3c2C(=O)c2nnn(Cc4ccc(NC(=O)CCCN(C)C)cc4)c2C3=O)cc1 | class 0
CC[C@@H](C)OC(=O)c1nn(C(C)=O)c2ccccc12 | class 0

[ask] Could you check what this test reported for CNCCCn1c2c(c3ccc([N+](=O)[O-])cc3c1=O)C(=O)c1cc(OC)cnc1-2 ?
[reply] class 1

[ask] What outcome does the record of this test show for COC(=O)[C@H](C(C)C)n1c(=O)c2cc(OC)c(OC)cc2c2cnc3[nH]ccc3c21 ?
[reply] class 0

[ask] Recorded test call requested for CN[C@@]12CC3(C=CC(=O)C=C3)O[C@]1(Cc1ccc(OC)cc1)N(C)C(=O)N2
[reply] class 0

[ask] Hello, I am checking results. What call was entered for COc1ccc(C(=O)c2sc3nc4c(cc3c2N)CCCC4)cc1OC ?
[reply] class 0

[ask] Fill in: this test's call for O=C(COCc1c(-c2ccccc2)no[n+]1[O-])Nc1ccc(C(=O)/C=C/c2ccc3c(c2)OCO3)cc1 is ___
[reply] class 0

----------
Reported growth values are given for each entry in this list.
- Tested on: UACC-257 melanoma
- experimental protocol: NCI-60 one-dose screen, 48 h (100 = growth as untreated, 0 = no growth, -100 = all killed)
- experimental parameters: 10 µM unless noted
This is part of a sample that, as a whole, favours compounds with a hit. Of some 83,000 tested, about 20% had one in any assay.
// note: answer is a bare numeric in %

Study these solved cases before continuing.
line notation | tgt | readout kind | observed result
CCC(=O)Oc1ccc(/C(=C(\C)c2ccccc2)c2ccc(OCCN(CC)CC)cc2)cc1 | UACC-257 melanoma | growth | 87.4
O=C(/C=C\c1ccc2ccccc2n1)c1cc(Cl)ccc1O | UACC-257 melanoma | growth | 84.9
Oc1ccccc1N=Cc1c(O)ccc2ccccc12 | UACC-257 melanoma | growth | 93.2
Oc1ccc(Nc2nccc(-c3ccc4ccccc4c3)n2)cc1 | UACC-257 melanoma | growth | 26.7
O=C(Cn1cc(CN2C(=O)c3ccccc3S2(=O)=O)nn1)Nc1ccc([N+](=O)[O-])cc1Cl | UACC-257 melanoma | growth | 98.6
COc1ccc(-c2cc(-c3cccnc3)nc3sc4c(=O)n(-c5ccc(C)cc5)cnc4c23)cc1OC | UACC-257 melanoma | growth | 104

[ask] Report measured growth; entry is Cc1ccccc1CCO
[reply] 89.4

[ask] Complete the entry with growth for Cc1ccc(-c2nc(/C=N/Nc3cc(C)nc4ccc(Br)cc34)c(C)o2)cc1
[reply] 97

[ask] Return growth for the following molecule: Cc1ccc(Nc2c(C(N)=O)cnc3ccc(-c4csc(N)n4)cc23)cc1
[reply] 101

[ask] Note down growth recorded for C=C1C(=O)O[C@H]2[C@H]1CC/C(Cn1cc(Cn3ccc4cc(Cl)ccc43)nn1)=C\CC[C@@]1(C)O[C@@H]21
[reply] 28.8

These data points were gathered from PubChem BioAssay (NCI).
